# system.tested: murine E^d MHC class II allele (Mus musculus, UniProt P01904+P01915)
# Sequence (P01904 26-255): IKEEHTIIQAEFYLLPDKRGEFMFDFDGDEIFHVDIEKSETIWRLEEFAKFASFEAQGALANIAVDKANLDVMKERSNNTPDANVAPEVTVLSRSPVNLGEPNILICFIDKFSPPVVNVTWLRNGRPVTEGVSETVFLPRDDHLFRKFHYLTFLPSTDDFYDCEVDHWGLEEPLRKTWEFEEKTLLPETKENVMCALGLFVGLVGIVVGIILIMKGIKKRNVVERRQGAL
# Sequence (P01915 27-264 limits assumed): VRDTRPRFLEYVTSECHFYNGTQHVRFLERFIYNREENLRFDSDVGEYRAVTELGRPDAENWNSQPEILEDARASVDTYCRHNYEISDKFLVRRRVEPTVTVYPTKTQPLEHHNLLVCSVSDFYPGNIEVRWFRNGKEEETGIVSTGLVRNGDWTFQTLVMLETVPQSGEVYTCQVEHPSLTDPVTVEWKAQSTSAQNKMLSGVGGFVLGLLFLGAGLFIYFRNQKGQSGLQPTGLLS
# measurement.protocol: simultaneous assay, E^d allele (A20 APC, G28.C9 T hybridoma, HEL106-116; HT-2 [3H]TdR readout)
# Assay type: cell-based
# Parameters: The A20 and CH27 B cell lymphoma lines express H-2^d and H-2^k alleles, respectively; endogenous in cells; host or cells: A20 B cell lymphoma (mitomycin C-treated or paraformaldehyde-fixed)
# experimental.setup: Table 1; AE peptide 64 μM (first value); 0.4 μM HEL106-116; supernatant 1:4
# Experimental: Examples 1-4 (Tables 1-18) will be briefly considered in order to establish the concept of tolerance discussed above. These examples describe experimental results observed in the so-called “simultaneous” assay. In the simultaneous assay four principle components are cultured together for a 24 hour period. […]
// values below are reported Times Baseline Response, E^d

INSERT INTO measurements (substance, measured_property, result) VALUES
  ('Ac-YRMKLPKSA-NH2 [AE111]', 'Times Baseline Response, E^d', 39.2),
  ('Ac-LRMKLPKPPP-NH2 [AE167]', 'Times Baseline Response, E^d', '20.1, n.d.'),
  ('Ac-LRMKLPK-NH2 [AE114]', 'Times Baseline Response, E^d', 39.8);

Item: Ac-YRMKLPKSAK-NH2 [AE109] | Times Baseline Response, E^d: 39.3

Item: Ac-LRMKLPKPPK-NH2 [AE168] | Times Baseline Response, E^d: 16.7, n.d.
